Each entry below carries its recorded ptz threshold at 30 mg/kg.
- Test system: clonic convulsions induced by pentylenetetrazol (PTZ)
- TEST DETAILS: PTZ clonic convulsions
- Format: in vivo
- TEST CONDITIONS: female NMRI mice, test substance 30 mg/kg i.v., PTZ infused after 5 min; vehicle threshold 37-39 mg PTZ/kg
# output: bare number, implied unit mg/kg

# count of solved cases: 5
• CCOC(=O)CN1CCN(c2cccc(-n3cnc4cc(C(=O)OCCOC)ccc43)c2)CC1 = 200
• CCOC(=O)CN1CCN(Cc2cccc(-n3cnc4cc(-c5ccoc5)ccc43)c2)CC1 = 120
• CCOC(=O)CN1CCC(c2cccc(-n3cnc4cc(-c5ccoc5)ccc43)c2)CC1 = 200
• COC(=O)c1ccc2c(c1)ncn2-c1cccc(Cn2ccnc2)c1 = 120
• COC(=O)c1cn(-c2cccc(-n3cnc4cc(-c5ccoc5)ccc43)c2)cn1 = 110

Enquiry: Give the measured ptz threshold at 30 mg/kg of `CCOC(=O)N1CCN(c2cccc(-n3cnc4cc(-c5ccoc5)ccc43)c2)CC1` .
Return: 140

Enquiry: Give the measured ptz threshold at 30 mg/kg of `CC(=O)N1CCN(CCOC(=O)c2cccc(-n3cnc4cc(-c5ccoc5)ccc43)c2)CC1` .
Return: 170

###

Where a name gives a salt, the structure may show the parent alone.
ASSAY READOUT: melting point

* COCCOC(=O)c1ccc2c(c1)ncn2-c1cccc(N2CCN(Cc3nnnn3C)CC2)c1 (as salt: HCl) | 196 to 198 °C
* CCN1C(C)CN(c2cccc(-n3cnc4cc(C(=O)OCCOC)ccc43)c2)CC1C (centres unmarked) (as salt: HCl) | 202 to 208 °C
* NC(=O)CN1CCN(c2cccc(-n3cnc4cc(C(=O)OCCO)ccc43)c2)CC1 (as salt: HCl) | 268 to 270 °C

Enquiry: Give the measured melting point of COCCOC(=O)c1ccc2c(c1)ncn2-c1cccc(N2CCNCC2)c1 (as salt: HCl) .
Return: 191 to 205 °C

Enquiry: Give the measured melting point of COCCOC(=O)c1ccc2c(c1)ncn2-c1cccc(C2CCN(C(C)=O)CC2)c1 (as salt: HCl) .
Return: 139 to 140 °C

###

- STUDY TARGET: benzodiazepine receptor (GABAA receptor complex), cerebral cortex membranes
- TEST DETAILS: In vitro inhibition of 3H-flunitrazepam (3H-FNM) binding
- TEST CONDITIONS: inhibition of specific 3H-FNM (1 nM) binding, rat cerebral cortex membranes
ASSAY READOUT: log10 IC50 (log10 of the value in nM)
Kindly note that the scale is log10 and the underlying IC50 is in nM.

• COC(=O)c1cn(-c2cccc(-n3cnc4cc(-c5ccoc5)ccc43)c2)cn1 [Compound 7c] = -0.15
• COC(=O)c1ccc2c(c1)ncn2-c1cccc(Cn2ccnc2)c1 [Compound 1l] = 1.08
• CCOC(=O)CN1CCC(c2cccc(-n3cnc4cc(-c5ccoc5)ccc43)c2)CC1 [Compound 7g] = -0.05

For the next question, use this compound.
Enquiry: Give the measured log10 IC50 of CCOC(=O)CN1CCN(Cc2cccc(-n3cnc4cc(-c5ccoc5)ccc43)c2)CC1 [Compound 7f] .
Return: -0.22

###

Each entry below carries its recorded melting point.
Structures can show the parent of a compound that is named as a salt.

- CCOC(=O)N1CCN(c2cccc(-n3cnc4cc(-c5ccoc5)ccc43)c2)CC1: 131 to 132 °C
- COC(=O)c1ccc2c(c1)ncn2-c1cccc(N2CCN(CC(=O)O)CC2)c1 (as salt: HCl): 210 to 220 °C
- CSCCOC(=O)c1ccc2c(c1)ncn2-c1cccc(N2CCN(C)CC2)c1: 121 to 122 °C
- COC(=O)c1cn(-c2cccc(-n3cnc4cc(-c5ccoc5)ccc43)c2)cn1: 221 to 223 °C
- CN(C)CCOC(=O)c1ccc2c(c1)ncn2-c1cccc(N2CCN(CC(=O)O)CC2)c1: 47 °C (dec.)
- CCOC(=O)CN1CCN(c2cccc(-n3cnc4cc(C(=O)OCCO)ccc43)c2)CC1 (as salt: HCl): 103 to 125 °C
- COC(=O)CN1CCN(c2cccc(-n3cnc4cc(C(=O)OCCO)ccc43)c2)CC1 (as salt: HCl): 150 to 155 °C
- COCCOC(=O)c1ccc2c(c1)ncn2-c1cccc(N2CCN(Cc3ccc(Cl)s3)CC2)c1 (as salt: HCl): 185 to 186 °C

Enquiry: Give the measured melting point of CN1CCN(c2cccc(-n3cnc4cc(C(=O)OCCO)ccc43)c2)CC1 (as salt: HCl) .
Return: 128 to 139 °C

Enquiry: Give the measured melting point of CCN(CC)C(=O)CN1CCN(c2cccc(-n3cnc4cc(C(=O)OCCO)ccc43)c2)CC1 (as salt: HCl) .
Return: 149 to 154 °C

Enquiry: Give the measured melting point of `COCCOC(=O)c1ccc2c(c1)ncn2-c1cccc(N2CCN(CC(=O)O)CC2)c1` .
Return: 105 to 110 °C

Enquiry: Give the measured melting point of CCOC(=O)CN1C(C)CN(c2cccc(-n3cnc4cc(C(=O)OCCOC)ccc43)c2)CC1C (stereo not drawn) (as salt: HCl) .
Return: 90 to 94 °C

Enquiry: Give the measured melting point of CCN(CC)C(=O)CN1CCN(c2cccc(-n3cnc4cc(C(=O)OCCOC)ccc43)c2)CC1 (as salt: HCl) .
Return: 202 to 204 °C

Enquiry: Give the measured melting point of COC(=O)c1ccc2c(c1)ncn2-c1cccc(N2CCNCC2)c1 (as salt: HCl) .
Return: 179 to 202 °C

Enquiry: Give the measured melting point of CN1CCCC1COC(=O)c1cccc(-n2cnc3cc(-c4ccoc4)ccc32)c1 (stereo not drawn) (as salt: HCl) .
Return: 198 to 200 °C

Enquiry: Give the measured melting point of COCCOC(=O)c1ccc2c(c1)ncn2-c1cccc(-n2cnc(C(=O)OC)c2)c1 (as salt: HCl) .
Return: 132 to 134 °C

Enquiry: Give the measured melting point of CCN1CCN(c2cccc(-n3cnc4cc(C(=O)OCCOC)ccc43)c2)CC1 (as salt: HCl) .
Return: 166 to 168 °C

Enquiry: Give the measured melting point of COCCOC(=O)c1ccc2c(c1)ncn2-c1cccc(N2CCN(CC(=O)OC(C)C)CC2)c1 (as salt: HCl) .
Return: 155 to 159 °C

###

- STUDY TARGET: benzodiazepine receptor (GABAA receptor complex), cerebral cortex membranes
- TEST DETAILS: In vitro inhibition of 3H-flunitrazepam (3H-FNM) binding
- TEST CONDITIONS: inhibition of specific 3H-FNM (1 nM) binding, rat cerebral cortex membranes
ASSAY READOUT: pIC50
On this scale, pIC50 is minus log10 of a concentration expressed in M (mol/L).

# count of solved cases: 2
• CCOC(=O)N1CCN(c2cccc(-n3cnc4cc(-c5ccoc5)ccc43)c2)CC1 = 9.10
• CC(=O)N1CCN(CCOC(=O)c2cccc(-n3cnc4cc(-c5ccoc5)ccc43)c2)CC1 = 8.55

Enquiry: Give the measured pIC50 of `CCOC(=O)CN1CCN(c2cccc(-n3cnc4cc(C(=O)OCCOC)ccc43)c2)CC1` .
Return: 6.59

###

Where a name gives a salt, the structure may show the parent alone.
ASSAY READOUT: melting point

# count of solved cases: 3
• CCOC(=O)N1CCN(Cc2cccc(-n3cnc4cc(-c5ccoc5)ccc43)c2)CC1 (as salt: HCl) = 248 to 250 °C
• CCOC(=O)CN1CCN(c2cccc(-n3cnc4cc(C(=O)OCCOC)ccc43)c2)CC1 (as salt: HCl) = 161 to 163 °C
• COC(=O)c1ccc2c(c1)ncn2-c1cccc(N2CCN(CC#N)CC2)c1 = 160 to 162 °C

Enquiry: Give the measured melting point of CCN1CC=C(c2cccc(-n3cnc4cc(C(=O)OCCOC)ccc43)c2)CC1 (as salt: HCl) .
Return: 179 to 180 °C

Enquiry: Give the measured melting point of COCCOC(=O)c1ccc2c(c1)ncn2-c1cccc(N2CCN(CCOCc3ccccc3)CC2)c1 (as salt: HCl) .
Return: 139 to 141 °C

Enquiry: Give the measured melting point of COCCOC(=O)c1ccc2c(c1)ncn2-c1cccc(N2CCN(Cc3ccccc3)CC2)c1 (as salt: HCl) .
Return: 172 to 177 °C

Enquiry: Give the measured melting point of COCCOC(=O)c1ccc2c(c1)ncn2-c1cccc(N2CCN(CC(=O)OC)CC2)c1 (as salt: HCl) .
Return: 161 to 164 °C

Enquiry: Give the measured melting point of COCCOC(=O)c1ccc2c(c1)ncn2-c1cccc(C2CCN(C)CC2)c1 (as salt: HCl) .
Return: 123 to 125 °C

###

Where a name gives a salt, the structure may show the parent alone.
Each entry below carries its recorded melting point.

# count of solved cases: 2
* CC(C)(C)OC(=O)CN1CCN(c2cccc(-n3cnc4cc(-c5ccoc5)ccc43)c2)CC1 | 131 to 132 °C
* COCCOC(=O)c1ccc2c(c1)ncn2-c1cccc(N2CCN(CC(N)=O)CC2)c1 (as salt: HCl) | 211 to 212 °C

Enquiry: Give the measured melting point of CC(=O)N1CCN(CCOC(=O)c2cccc(-n3cnc4cc(-c5ccoc5)ccc43)c2)CC1 (as salt: HCl) [Compound 7j] .
Return: 167 to 168 °C

Enquiry: Give the measured melting point of `COCCOC(=O)c1ccc2c(c1)ncn2-c1cccc(N2CCN(CC#N)CC2)c1` .
Return: 91 to 93 °C
